For each record, write down the corresponding pIC50.
- Study System: T1, human A-beta(1-40) peptide, monomeric (BAM) (human, biotin at the C-terminus in capture ELISA, SPR and TR-FRET; not biotinylated where coated directly (Example 7))
- T1 construct: synthetic peptide (Anaspec), TFA/HFIP treated to give monomer; also called monomeric A-beta
- Test Protocol: 60A10 TR-FRET assay (labelled ABII60A10)
Answers are plain numbers, as −log10 of the molar value.

{"Binder": "Fab fragment of monoclonal antibody m266 (Fab, V domains shown, also called Fab266; m266Fab) VH: EVKLVESGGGLVQPGGSLKLSCAVSGFTFSRYSMSWVRQTPEKRLELVAQINSVGNSTYYPDTVKGRFTISRDNAEYTLSLQMSGLRSDDTATYYCASGDYWGQGTTLTVSS VL: DVVMTQTPLSLPVSLGDQASISCRSSQSLIYSDGNAYLHWFLQKPGQSPKLLIYKVSNRFSGVPDRFSGSGSGTDFTLKISRVETEDLGVYFCSQSTHVPWTFGGGTKLEIK", "pIC50": 8.64}

Now turn to the next binder.
The reported value for ABII60A10 = ABII050 (VHH) VHH: EVQLVESGGGLVQAGGSLRLSCAASGRTFNNYNMGWFRQAPGKEREFVAAVSRSGVSTYYADSVKGRFTISRDNAKNAVYLQMNSLKPEDTAIYYCGAAYRGTAINVRRSYDSWGQGTQVTVSS in terms of pIC50 is 7.52
